Where do these numbers come from? They come from patent US11964973B2.

The reader will find reported IC50 values listed item by item below.
Experimental system: human DGKζ (Homo sapiens (Human))
Sequence (Q13574 whole entry, looked up): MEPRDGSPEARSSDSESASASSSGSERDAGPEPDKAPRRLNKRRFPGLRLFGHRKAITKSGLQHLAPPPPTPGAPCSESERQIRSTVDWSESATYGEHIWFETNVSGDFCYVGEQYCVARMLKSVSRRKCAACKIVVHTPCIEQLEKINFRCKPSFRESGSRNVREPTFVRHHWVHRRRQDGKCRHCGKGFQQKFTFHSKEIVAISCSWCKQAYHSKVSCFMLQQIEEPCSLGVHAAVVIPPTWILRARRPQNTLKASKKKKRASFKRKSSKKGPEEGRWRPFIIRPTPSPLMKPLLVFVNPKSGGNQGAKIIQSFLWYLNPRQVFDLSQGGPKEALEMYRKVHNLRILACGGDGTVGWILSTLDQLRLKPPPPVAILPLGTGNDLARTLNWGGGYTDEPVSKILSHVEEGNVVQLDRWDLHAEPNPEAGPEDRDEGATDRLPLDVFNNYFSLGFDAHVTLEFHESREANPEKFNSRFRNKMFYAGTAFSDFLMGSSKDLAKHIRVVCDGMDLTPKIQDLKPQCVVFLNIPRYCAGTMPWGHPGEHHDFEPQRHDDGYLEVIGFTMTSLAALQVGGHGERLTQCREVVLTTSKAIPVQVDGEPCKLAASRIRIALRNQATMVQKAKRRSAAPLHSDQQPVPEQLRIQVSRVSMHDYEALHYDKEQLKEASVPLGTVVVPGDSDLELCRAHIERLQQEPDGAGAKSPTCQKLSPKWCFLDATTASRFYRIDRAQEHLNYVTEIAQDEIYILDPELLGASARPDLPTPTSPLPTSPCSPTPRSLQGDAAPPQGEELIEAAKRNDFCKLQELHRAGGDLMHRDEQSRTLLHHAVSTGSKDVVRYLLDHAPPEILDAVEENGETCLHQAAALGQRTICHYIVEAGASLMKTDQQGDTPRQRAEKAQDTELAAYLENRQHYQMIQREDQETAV
Protocol notes: biochemical
Type: biochemical
Assay setup: liposome (LIPGLO) assay; read-out: DGKζ LIPGLO IC50
Express it in µM; write the number only.

Sample answers from the record:
{"Molecule": "CC(C)c1ccc(O[C@H]2CCN(c3cc(=O)n(C)c4ccc(C#N)nc34)C[C@H]2C)cc1 (single isomer, unassigned) [Example 177]", "Value unit": "µM", "IC50": 1.1}
{"Molecule": "Cn1c(=O)c(C#N)c(N2CCC(Oc3ccccc3)CC2)c2nc(Cl)ccc21", "Value unit": "µM", "IC50": 27}
{"Molecule": "CC[C@@H]1CN(c2cc(=O)n(C)c3ccc(C#N)nc23)CC[C@H]1Oc1cccc(C(F)(F)F)c1 (single isomer, unassigned) [Example 141]", "Value unit": "µM", "IC50": 0.26}
{"Molecule": "Cn1c(=O)c(C#N)c(N2CCC(Oc3cccc(C#N)c3)CC2)c2nc(Cl)ccc21", "Value unit": "µM", "IC50": 9}
{"Molecule": "Cn1c(=O)c([N+](=O)[O-])c(N2CCC(Oc3ccc(OC(F)(F)F)cc3)CC2)c2cc(F)ccc21", "Value unit": "µM", "IC50": 240}
{"Molecule": "Cn1c(=O)c(C#N)c(N2CCC(Oc3ccccc3Cl)CC2)c2nc(Cl)ccc21", "Value unit": "µM", "IC50": 13}
{"Molecule": "Cn1c(=O)cc(N2CCC(Oc3ccc(C4CC4)cc3)CC2)c2nc(C#N)ccc21", "Value unit": "µM", "IC50": 3.7}
{"Molecule": "Cn1c(=O)cc(N2CCC(Oc3ccc(OC(F)(F)F)cc3)CC2)c2nc(C#N)ccc21", "Value unit": "µM", "IC50": 3.8}

Please tell me: IC50 of CCC(C)(C)c1ccc(OC2CCN(c3cc(=O)n(C)c4ccc(C#N)nc34)CC2)cc1 , system human DGKζ (Homo sapiens (Human))? 2.1

Find the measured IC50: item Cn1c(=O)cc(N2CCC(Oc3ccc(C(F)(F)F)cn3)CC2)c2nc(C#N)ccc21 , target or system human DGKζ (Homo sapiens (Human)). 3

# returns recorded IC50 (system: human DGKζ (Homo sapiens (Human))) for CC[C@@H]1CN(c2cc(=O)n(C)c3ccc(C#N)nc23)CC[C@H]1Oc1ccc(OC(C)(C)C)cc1 (single isomer, unassigned) [Example 160] 3.3

Param readout= IC50; system= human DGKζ (Homo sapiens (Human)); entry= Cc1ccc(O[C@@H]2CCN(c3cc(=O)n(C)c4ccc(C#N)nc34)C[C@H]2C)cc1 (single isomer, unassigned) [Example 120] ; returns value. 73

Item C[C@@H]1CN(c2cc(=O)n(C)c3ccc(C#N)nc23)CC[C@H]1Oc1cccc(C2CC2)c1 (single isomer, unassigned) [Example 93] with human DGKζ (Homo sapiens (Human)) - IC50? 18

Lab request: please report IC50 under test system human DGKζ (Homo sapiens (Human)) for Cn1c(=O)c(C#N)c(N2CCC(Oc3ccc(OC(F)(F)F)cc3)CC2)c2nc(C#N)ccc21 12

###

Experimental system: Human DGKα(9-727) (Homo sapiens (Human))
Sequence (P23743 whole entry, looked up): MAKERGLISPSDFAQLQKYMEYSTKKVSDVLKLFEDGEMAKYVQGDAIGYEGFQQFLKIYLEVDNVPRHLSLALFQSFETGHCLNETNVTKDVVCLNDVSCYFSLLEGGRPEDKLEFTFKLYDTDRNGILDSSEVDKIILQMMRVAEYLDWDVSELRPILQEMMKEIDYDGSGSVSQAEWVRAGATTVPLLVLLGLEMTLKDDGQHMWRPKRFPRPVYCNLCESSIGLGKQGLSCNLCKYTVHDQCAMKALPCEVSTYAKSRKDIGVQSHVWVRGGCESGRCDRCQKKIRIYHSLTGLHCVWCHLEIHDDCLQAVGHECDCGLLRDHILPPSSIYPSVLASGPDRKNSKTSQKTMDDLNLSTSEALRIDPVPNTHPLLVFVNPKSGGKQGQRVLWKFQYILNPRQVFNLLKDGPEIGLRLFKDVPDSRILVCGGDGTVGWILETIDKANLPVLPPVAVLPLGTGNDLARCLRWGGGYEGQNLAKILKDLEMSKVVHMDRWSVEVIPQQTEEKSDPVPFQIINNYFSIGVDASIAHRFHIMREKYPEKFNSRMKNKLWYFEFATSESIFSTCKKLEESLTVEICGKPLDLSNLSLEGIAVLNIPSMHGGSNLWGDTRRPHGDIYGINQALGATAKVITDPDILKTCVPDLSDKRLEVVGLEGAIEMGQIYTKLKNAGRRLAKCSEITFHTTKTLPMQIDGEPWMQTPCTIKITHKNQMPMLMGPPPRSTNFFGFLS
Protocol notes: biochemical
Assay setup: liposome (LIPGLO) assay; Table A; read-out: DGKα LIPGLO IC50
Recorded IC50 for the following compounds
# value in µM; strip the unit string

{"Compound": "CN(C)CCO[C@@H]1CN(c2cc(=O)n(C)c3ccc(C#N)nc23)CC[C@H]1Oc1cccc(C(F)(F)F)c1 [Example 386]", "Experimental system": "Human DGKα(9-727) (Homo sapiens (Human))", "Value unit": "µM", "Value observed": 130}
{"Compound": "C[C@@H]1CN(c2cc(=O)n(C)c3ccc(C#N)nc23)[C@@H](C)CC1N(C)C(=O)c1ccc(F)cc1 (single isomer, unassigned) [Example 283A]", "Experimental system": "Human DGKα(9-727) (Homo sapiens (Human))", "Value unit": "µM", "Value observed": 26}

With those in mind, consider the next compound.
Reported IC50 for Cn1c(=O)cc(N2CC[C@@H](Oc3cccc(C(F)(F)F)c3)[C@H](OCC(F)(F)F)C2)c2nc(C#N)ccc21 [Example 393] : what is it? 1.1
